These measurements were taken from PubChem BioAssay AID1030.

- tgt: Aldehyde dehydrogenase 1A1 (Homo sapiens) (UniProt P00352)
- Sequence (P00352 whole entry, looked up): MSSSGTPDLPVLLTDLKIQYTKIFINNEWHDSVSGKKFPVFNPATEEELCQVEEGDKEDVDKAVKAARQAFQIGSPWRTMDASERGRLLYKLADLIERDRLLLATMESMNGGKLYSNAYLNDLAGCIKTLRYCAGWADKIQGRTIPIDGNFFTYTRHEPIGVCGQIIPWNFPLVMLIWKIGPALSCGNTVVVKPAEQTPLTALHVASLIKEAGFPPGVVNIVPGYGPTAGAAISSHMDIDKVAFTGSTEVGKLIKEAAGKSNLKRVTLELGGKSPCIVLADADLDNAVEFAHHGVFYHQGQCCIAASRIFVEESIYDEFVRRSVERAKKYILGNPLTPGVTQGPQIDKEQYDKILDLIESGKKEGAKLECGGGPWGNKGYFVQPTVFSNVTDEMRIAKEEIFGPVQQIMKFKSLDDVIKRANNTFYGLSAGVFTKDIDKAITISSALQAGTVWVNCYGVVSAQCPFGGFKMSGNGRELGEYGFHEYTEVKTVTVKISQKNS
- test_description: qHTS Assay for Inhibitors of Aldehyde Dehydrogenase 1 (ALDH1A1)
- protocol_conditions: Purified ALDH1A1, NADH fluorescence, propionaldehyde substrate; series mostly up to 75.3 µM
Screen size: about 220,000 compounds; about 16,000 (7.3%) were called active. Not shown: some 25% with an inconclusive outcome. Calls follow the shape of the dose curve; as a rule, active = well fitted inhibition curve with a large enough effect (not every such curve was filed as active); inconclusive = small, poorly fitted or top-dose-only effect, or another doubt; inactive = no such curve, though single readings can be large or run the other way. Many of the other results were omitted from the sample, so actives are more common in it than they were.
Parameter call: string, one of active, inactive

Worked examples, 6 molecules total:
{"molecule": "Cc1ccc(S(=O)(=O)NCCc2nnc3ccc(SCc4cccnc4)nn23)cc1", "label_class": "inactive"}
{"molecule": "CCOc1cc(NC(=O)CCl)c(OCC)cc1NC(C)=O", "label_class": "active"}
{"molecule": "COc1ccc(CC(=O)N[C@@H](CCSC)c2nc3ccccc3[nH]2)cc1", "label_class": "active"}
{"molecule": "O=C(CSc1nnc(-c2ccncc2)n1-c1ccc(Cl)cc1)Nc1ccc(C(=O)O)cc1", "label_class": "inactive"}
{"molecule": "CC(C)c1nc2sc3c(c2c(=O)n1N)CC(C)(C)OC3", "label_class": "inactive"}
{"molecule": "CCCCCCSc1nsc(N)n1", "label_class": "inactive"}

What did the test return for COc1cc(C(=O)N2C(=O)c3cccc(N)c3C2=O)cc(OC)c1OC ? inactive

What did the test return for CCOc1ccc(C(=O)Nc2cc(OC)ccc2OC)cc1 ? inactive

What did the test return for CCCCC/C=C\C/C=C\CCCCCCCCCC(=O)O ? inactive

What did the test return for COc1ccccc1C1CCN(C(=S)Nc2ccc(Br)cc2)CC1 ? inactive

What did the test return for N=c1c2c3c(sc2nc2n1CCCCC2)CCCC3 ? inactive

What did the test return for COc1ccc(/C=C/CN2CCN(Cc3ccc(C)cc3)C(CCO)C2)cc1 (configuration not stated) ? inactive

What did the test return for CCOc1ccc(NS(=O)(=O)c2cc(C)c(C)cc2C)cc1 ? active

What did the test return for NNC(=O)C1CCCn2c1nc1sc3c(c1c2=O)CCCC3 (configuration not stated) ? active

* * *

- tgt: Aldehyde dehydrogenase 1A1 (Homo sapiens) (UniProt P00352)
- test_description: qHTS Assay for Inhibitors of Aldehyde Dehydrogenase 1 (ALDH1A1)
- protocol_conditions: Purified ALDH1A1, NADH fluorescence, propionaldehyde substrate; series mostly up to 75.3 µM
The whole screen tested about 220,000 compounds, of which about 16,000 (7.3%) were called active. Roughly 25% stayed inconclusive and do not appear here. The call rests on the fitted dose curve; in most records, active means well fitted inhibition curve with a large enough effect (not every such curve was filed as active); inconclusive means small, poorly fitted or top-dose-only effect, or another doubt; inactive means no such curve, though single readings can be large or run the other way. This excerpt belongs to a sample that is enriched for actives.
Parameter call: string, one of active, inactive

Worked examples, 3 molecules total:
{"molecule": "COc1ccc(NS(=O)(=O)c2ccc(NC(=S)NC(=O)CC(C)C)cc2)cc1", "label_class": "active"}
{"molecule": "Cc1cc(Cl)c(S(=O)(=O)NCC2CCCO2)cc1OCC(N)=O (stereo unspecified)", "label_class": "inactive"}
{"molecule": "CC(=O)c1ccc(NC(=S)NC(=O)CC(C)C)cc1", "label_class": "inactive"}

What did the test return for CC(C)Oc1ccc(Cc2n[nH]c(=S)n2Cc2ccccc2)cc1Cl ? inactive

What did the test return for COc1ccc(C(=O)Nc2ccc(S(=O)(=O)NC(C)C)cc2)cc1 ? inactive

What did the test return for Cc1nn(CCOc2ccc(Br)cc2)c(C)c1[N+](=O)[O-] ? inactive
